Target: CD40 immobilized on microassay plates (UniProt P25942 21-193, limits assumed)
Sequence (P25942 21-193 limits assumed): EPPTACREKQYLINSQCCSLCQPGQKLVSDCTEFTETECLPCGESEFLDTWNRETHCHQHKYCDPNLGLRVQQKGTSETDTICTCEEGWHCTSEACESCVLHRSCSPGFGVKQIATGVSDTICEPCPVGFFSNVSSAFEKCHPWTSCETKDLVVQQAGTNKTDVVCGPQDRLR
Experiment: serially diluted antibody on CD40 immobilized on microassay plates
Lab note: cut-off is 1. Strictly less in Binding Data 2 is True. Exactly 1 or more is False.

Some entries whose results are on file:
- hu sgn-4 (antibody, V domains shown) VH: EVQLVESGGGLVQPGGSLRLSCAASGYSFTGYYIHWVRQAPGKGLEWVARVIPNNGGTSYNQKFKGRATLSVDNSKNTAYLQMNSLRAEDTAVYYCAREGIYWWGQGTLVTVS VL: DIQMTQSPSSLSASVGDRVTITCRSSQSLVHSNGNTFLHWYQQKPGKAPKLLIYTVSNRFSGVPSRFSGSGSGTDFTLTISSLQPEDFATYYCSQTTHVPWTFGQGTKVEIKR: False
- hu sgn-18 (antibody, V domains shown) VH: EVQLVESGGGLVQPGGSLRLSCAASGYSFTGYYIHWVRQAPGKGLEWVARVIPNNGGTSYNQKFKGRATLSVDNSKNTAYLQMNSLRAEDTAVYYCAREGIYWWGQGTLVTVS VL: DIQMTQSPSSLSASVGDRVTITCRSSQSLVHSNGNTFLHWYQQKPGKAPKLLIYTVSNRFSGVPSRFSGSGSGTDFTLTISSLQPEDFATYFCSQTTHVPWTFGQGTKVEIKR: False
- hu sgn-15 (antibody, V domains shown) VH: EVQLVESGGGLVQPGGSLRLSCAASGYSFTGYYIHWVRQAPGKGLEWVARVIPNNGGTSYNQKFKGRATISVDNSKNTAYLQMNSLRAEDTAVYYCAREGIYWWGQGTLVTVS VL: DIQMTQSPSSLSASVGDRVTITCRSSQSLVHSNGNTFLHWYQQKPGKAPKLLIYTVSNRFSGVPSRFSGSGSGTDFTLTISSLQPEDFATYYCSQTTHVPWTFGQGTKVEIKR: False
- hu sgn-23 (antibody, V domains shown) VH: EVQLVESGGGLVQPGGSLRLSCAASGYSFTGYYIHWVRQAPGKGLEWVARVIPNQGGTSYNQKFKGRFTLSVDNSKNTAYLQMNSLRAEDTAVYYCAREGIYWWGQGTLVTVS VL: DIQMTQSPSSLSASVGDRVTITCRSSQSLVHSNGNTFLHWYQQKPGKAPKLLIYTVSNRFSGVPSRFSGSGSGTDFTLTISSLQPEDFATYYCSQTTHVPWTFGQGTKVEIKR: True

Next:
[ask] Consider hu sgn-26 (antibody, V domains shown) VH: EVQLVESGGGLVQPGGSLRLSCAASGYSFTGYYIHWVRQAPGKGLEWVARVIPNAGGTSYNQKFKGRFTLSVDNSKNTAYLQMNSLRAEDTAVYYCAREGIYWWGQGTLVTVS VL: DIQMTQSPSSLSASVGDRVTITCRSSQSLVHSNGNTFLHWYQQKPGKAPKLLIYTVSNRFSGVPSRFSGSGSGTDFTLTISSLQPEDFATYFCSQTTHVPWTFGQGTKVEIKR . Does its Binding Data 2 lie strictly below 1?
[reply] True
